All figures here come from PubChem BioAssay AID248.

- Test system: L1210 leukemia ip in BDF1 mice, survival T/C
- Assay details: NCI In Vivo Anticancer Drug Screen. Data for tumor model L1210 Leukemia (intraperitoneal) in B6D2F1 (BDF1) mice
- Condition description: endpoint: mean survival time; dose: 100.0 mg/kg/injection; schedule: Q04DX003 (ip); vehicle: Klucel (hydroxypropylcellulose) (HPC); higher = longer survival
Inconclusive results and toxic doses are left out.
Measured quantity: T/C

Below are 3 compounds. Give each one its T/C.
1. O=C(O)c1cccnc1Cl
2. NC(=O)CC1CCCCC1
3. O=Cc1cc2cccnc2s1

Reply:
1: 96 % of control; 2: 97 % of control; 3: 103 % of control

Batch request: T/C per item, same order as input.
1. O=S(=O)(Nc1ccc2ccccc2c1)c1ccc2ccccc2c1
2. Cc1ccc(C(C)C)c(Oc2cc(C)ccc2C(C)C)c1
3. OC(CBr)c1ccc(Cl)c(Cl)c1 (configuration not stated)
4. CC1(C)OC2C(CO)OC(n3cnc4c(N)ncnc43)C2O1 (configuration not stated)
5. O=[N+]([O-])c1ccc(C(O)CC(O)(C(F)(F)F)C(F)(F)F)cc1 (configuration not stated)
6. COc1ccc(NC(=O)Oc2ccccc2Cc2ccccc2)cc1

Reply:
1. 91 % of control
2. 97 % of control
3. 97 % of control
4. 103 % of control
5. 94 % of control
6. 97 % of control

Dear colleague, could you send me T/C for each of the items below? Thanks.
1. O=Cc1c(Cl)c(Cl)c(C=O)c(Cl)c1Cl
2. CN(N=O)c1ccc(N(C)N=O)cc1

Reply:
1: 102 % of control; 2: 96 % of control
